Target: unphosphorylated c-FMS kinase (uFMS, Seq. ID no. 1) (Homo sapiens, UniProt P07333)
Sequence (P07333 538-972): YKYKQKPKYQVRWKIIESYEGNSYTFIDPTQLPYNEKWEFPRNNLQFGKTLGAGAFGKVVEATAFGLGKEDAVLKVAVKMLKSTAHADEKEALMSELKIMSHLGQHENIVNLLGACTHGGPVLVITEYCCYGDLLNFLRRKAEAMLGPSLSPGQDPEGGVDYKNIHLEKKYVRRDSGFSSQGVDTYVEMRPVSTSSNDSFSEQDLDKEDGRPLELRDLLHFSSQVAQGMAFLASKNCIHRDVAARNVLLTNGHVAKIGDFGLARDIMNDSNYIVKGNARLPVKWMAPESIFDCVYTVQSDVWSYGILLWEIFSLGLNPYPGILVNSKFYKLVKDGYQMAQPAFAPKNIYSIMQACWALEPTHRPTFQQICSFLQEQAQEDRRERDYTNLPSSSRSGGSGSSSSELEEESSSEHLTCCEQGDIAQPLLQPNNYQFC
Assay: biochemical
Details: uFMS, enzymatic assay, ATP 500 μM
readout label: IC50

Consider the following illustrative entries.
[
  {
    "compound": "Cc1cn(-c2cc(Oc3ccc(NC(=O)NC(=O)C4CCOCC4)nc3C)ccn2)cn1 [Example 142]",
    "experimental result": "10 to 100 nM"
  },
  {
    "compound": "COC(C)(C)C(=O)NC(=O)Nc1ccc(Oc2ccnc(-c3cnc(C)n3C)c2)cn1 [Example 139]",
    "experimental result": "100 to 1000 nM"
  },
  {
    "compound": "C=CCn1cc(-c2cc(Oc3ccc(NC(=O)NC(=O)C(C)(C)OC)nc3)ccn2)cn1 [Example 172]",
    "experimental result": "< 10 nM"
  },
  {
    "compound": "Cc1ccc(-c2cc(Oc3ccc(NC(=O)NC(=O)C4CCOC4)nc3)ccn2)cn1 (stereo not drawn) [Example 89]",
    "experimental result": "10 to 100 nM"
  },
  {
    "compound": "CC(C)(C)C(=O)NC(=O)Nc1ccc(Oc2ccnc(-c3cncnc3)c2)cn1 [Example 90]",
    "experimental result": "10 to 100 nM"
  }
]

Here are 2 compounds. What values of IC50 were reported for them?
1. Cc1ncc(-c2cc(Oc3ccc(NC(=O)NC(=O)C(C)(C)C)nc3)ccn2)s1 [Example 70]
2. CCc1nc(NC(=O)NC(=O)C2(C)CCOCC2)ccc1Oc1ccnc(-c2cnn(C)c2)c1 [Example 167]

Solution:
["< 10 nM", "10 to 100 nM"]
